MEASURED TARGET: UniProt Q9NWZ3
Sequence (Q9NWZ3 whole entry, species assumed): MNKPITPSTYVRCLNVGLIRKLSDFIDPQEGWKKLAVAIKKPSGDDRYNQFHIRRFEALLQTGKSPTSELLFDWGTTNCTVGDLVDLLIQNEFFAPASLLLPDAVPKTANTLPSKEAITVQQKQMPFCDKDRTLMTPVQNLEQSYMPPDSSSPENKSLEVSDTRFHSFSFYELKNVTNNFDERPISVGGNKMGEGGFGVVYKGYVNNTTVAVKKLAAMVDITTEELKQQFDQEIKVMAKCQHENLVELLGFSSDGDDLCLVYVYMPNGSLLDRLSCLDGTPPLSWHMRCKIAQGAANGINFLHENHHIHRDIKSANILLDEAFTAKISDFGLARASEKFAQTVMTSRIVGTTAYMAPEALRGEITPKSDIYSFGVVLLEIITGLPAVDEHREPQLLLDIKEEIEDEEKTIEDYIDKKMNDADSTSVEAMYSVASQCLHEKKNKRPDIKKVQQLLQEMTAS
ASSAY TEXT: In vitro IRAK-4 kinase assay
CONDITION DESCRIPTION: purified recombinant IRAK-4, 50 uM ATP, 33P peptide phosphorylation
Structures can show the parent of a compound that is named as a salt.
EXPERIMENTAL READOUT: IC50 (nM)
Value expressed in nM; do not type the unit.

Answered examples (5):
- COMPOUND: "O=C(Nc1cc2cccnc2cc1O[C@@H]1CC[C@H](O)C1)c1csc2cncnc12 [Example 54, hydrochloride]"
  MEASURED TARGET: "UniProt Q9NWZ3"
  IC50 / nM: 122
- COMPOUND: "COc1cc2ncccc2cc1NC(=O)c1csc2cnc(N(CCO)C(C)C)nc12 [Example 57]"
  MEASURED TARGET: "UniProt Q9NWZ3"
  IC50 / nM: 127
- COMPOUND: "COc1ccc(Cl)cc1NC(=O)c1cnn2cccnc12 [Example 123]"
  MEASURED TARGET: "UniProt Q9NWZ3"
  IC50 / nM: 1630
- COMPOUND: "CN(C)c1ccc(Cl)cc1NC(=O)c1cnn2cccnc12 [Example 108]"
  MEASURED TARGET: "UniProt Q9NWZ3"
  IC50 / nM: 739
- COMPOUND: "O=C(Nc1cccc(NCCO)c1N1CCCCC1)c1cnn2cccnc12 [Example 114]"
  MEASURED TARGET: "UniProt Q9NWZ3"
  IC50 / nM: 1030

So what does the record say about IC50 for O=C1Cc2cc(N3CCCCC3)c(NC(=O)c3cnn4cccnc34)cc2N1 [Example 48] ?
98

So what does the record say about IC50 for O=C(Nc1cc(Cl)ccc1OCCO)c1cnn2cccnc12 [Example 179] ?
5000

So what does the record say about IC50 for COc1cc(C(=O)NCCO)ccc1NC(=O)c1csc2cncnc12 [Example 122] ?
1620

So what does the record say about IC50 for CC(C)(CCO)Oc1ccc(Cl)cc1NC(=O)c1csc2cncnc12 [Example 117] ?
1460

Ref: patent US9255110B2
